- Tested on: human lung cancer strain NCI-H441
- Assay type: cell-based
Where a SMILES comes first, the peptide text is derived from it. Bridges are numbered along the chain shown (N, C = ends). [ ]: non-standard residue; d: D form. The star is where a group is joined. hPhe(3-Cl-4-CF3) = N[C@@H](CCc1ccc(C(F)(F)F)c(Cl)c1)C(=O)O; NPrPhe(4-CF3) = CCCN[C@@H](Cc1ccc(C(F)(F)F)cc1)C(=O)O; NMeGly(cPent) = CN[C@H](C(=O)O)C1CCCC1; Pro(4,4-F2) = O=C(O)[C@@H]1CC(F)(F)CN1; NMeL = CN[C@@H](CC(C)C)C(=O)O; Morpholide = C1CN(*)CCO1; Ac5c = NC1(C(=O)O)CCCC1; Sar = CNCC(=O)O
One threshold, 8 nM, splits the recorded IC50 values: lower ones are yes (1), equal or higher ones are no (0).

Below, 4 molecules whose answers are already recorded.
molecule="CCCN1C(=O)CN(C)C(=O)CN(C)C(=O)[C@H]([C@@H](C)CC)NC(=O)[C@H](CC(C)C)N(C)C(=O)C[C@@H](C(=O)N2CCOCC2)NC(=O)[C@H](C2CCCC2)N(C)C(=O)C2(CCCC2)NC(=O)[C@@H]2CC(F)(F)CN2C(=O)[C@H](CCc2ccc(C(F)(F)F)c(Cl)c2)NC(=O)CN(C)C(=O)[C@@H]1Cc1ccc(C(F)(F)F)cc1 [PP0321] ([NMeL]I[Sar][Sar][NPrPhe(4-CF3)][Sar][hPhe(3-Cl-4-CF3)][Pro(4,4-F2)][Ac5c][NMeGly(cPent)]D-Morpholide; lactam N-11)" discrete_label="no (0)"
molecule=CC[C@H](C)[C@@H]1NC(=O)[C@H](CC(C)C)N(C)C(=O)C[C@@H](C(=O)N2CCOCC2)N(C)C(=O)[C@H](C2CCCC2)N(C)C(=O)C2(CC(F)(F)C2)NC(=O)[C@@H]2CCCN2C(=O)[C@H](CCc2cc(F)c(C(F)(F)F)c(F)c2)NC(=O)CN(C)C(=O)[C@H](Cc2ccc(C(F)(F)F)cc2)N2CCCCC[C@@H](C2=O)N(C)C(=O)CN(C)C1=O discrete_label="no (0)"
molecule=CCO[C@@H]1C[C@H]2C(=O)NC3(CCC3)C(=O)N(C)[C@@H](C3CCCC3)C(=O)N(C)[C@H](C(=O)N(C)C)CC(=O)N(C)[C@@H](CC)C(=O)N[C@@H]([C@@H](C)CC)C(=O)N(C)CC(=O)N(C)[C@H]3CCCCN(C3=O)[C@@H](Cc3ccc(C(F)(F)F)cc3)C(=O)N(C)CC(=O)N[C@@H](CCc3ccc(Cl)c(Cl)c3)C(=O)N2C1 discrete_label="yes (1)"
molecule=CCO[C@@H]1C[C@H]2C(=O)NC3(CCC3)C(=O)N(C)[C@@H](C(CC)CC)C(=O)N3CCC[C@@H]3CC(=O)N(C)[C@@H](CC3CC3)C(=O)N[C@@H]([C@@H](C)CC)C(=O)N(C)CC(=O)N(C)[C@H]3C/C=C\CCN(C3=O)[C@@H](Cc3ccc(C(F)(F)F)cc3)C(=O)N(C)CC(=O)N[C@@H](CCc3cc(F)c(C(F)(F)F)c(F)c3)C(=O)N2C1 discrete_label="no (0)"

Q: Does CCCC[C@H]1C(=O)N[C@@H]([C@@H](C)CC)C(=O)N(C)CC(=O)N(C)[C@H]2C/C=C\CCN(C2=O)[C@@H](Cc2ccc(C)cc2)C(=O)N(C)CC(=O)N[C@@H](CCc2cc(F)c(C(F)(F)F)c(F)c2)C(=O)N2C[C@H](OCC)C[C@H]2C(=O)NC2(CCC2)C(=O)N(C)[C@@H](C2CCCC2)C(=O)N(C)[C@H](C(=O)N(C)C)CC(=O)N1C have IC50 strictly under 8 nM?
A: no (0)

Source of measurements: patent EP4603105A1
